Attribution: PubChem BioAssay (Tox21)

assay: qHTS assay to identify small molecule agonists of the constitutive androstane receptor (CAR) signaling pathway - cell viability counter screen (AID 1224836); settings: HepG2-CYP2B6-hCAR viability, CellTiter-Fluor, 23 h, PK11195 added to every well; series mostly up to 92.4 µM; note: % is set by controls: 0 for no effect and ±100 for the full control effect; nearly all actives have a fitted effect of over 45% in size
Inconclusive results are not listed. The source made the active and inactive calls. Calls come from the whole dose curve; as a rule, active = well fitted cell-killing curve with a large enough effect in the repeat runs; inconclusive = weak or mixed curves, or effect the other way; inactive = flat fitted curve, though single readings scatter.

[
  {
    "compound": "CC/C=C\\CCOC(=O)C(C)C",
    "viability change, negative = cytotoxic": "inactive"
  },
  {
    "compound": "COc1cc(C)ccc1C(C)C",
    "viability change, negative = cytotoxic": "inactive"
  },
  {
    "compound": "CC(C)(C)c1ccc(OC(=O)c2ccccc2O)cc1",
    "viability change, negative = cytotoxic": "inactive"
  },
  {
    "compound": "COC(=O)c1ccc2cc(C(=O)OC)ccc2c1",
    "viability change, negative = cytotoxic": "6.04% [at 19 µM] (inactive)"
  },
  {
    "compound": "CC1=C(O)C(=O)OC1C (stereo not drawn)",
    "viability change, negative = cytotoxic": "inactive"
  },
  {
    "compound": "CN1CCC[C@@H]1Cc1c[nH]c2ccc(CCS(=O)(=O)c3ccccc3)cc12",
    "viability change, negative = cytotoxic": "inactive"
  },
  {
    "compound": "CN(C)Cc1ccccc1",
    "viability change, negative = cytotoxic": "inactive"
  },
  {
    "compound": "CC(C)S",
    "viability change, negative = cytotoxic": "inactive"
  }
]
